Biological target: SaSiaT (Staphylococcus aureus, UniProt A0A0H2XJ46)
Sequence (A0A0H2XJ46 entry or part of it): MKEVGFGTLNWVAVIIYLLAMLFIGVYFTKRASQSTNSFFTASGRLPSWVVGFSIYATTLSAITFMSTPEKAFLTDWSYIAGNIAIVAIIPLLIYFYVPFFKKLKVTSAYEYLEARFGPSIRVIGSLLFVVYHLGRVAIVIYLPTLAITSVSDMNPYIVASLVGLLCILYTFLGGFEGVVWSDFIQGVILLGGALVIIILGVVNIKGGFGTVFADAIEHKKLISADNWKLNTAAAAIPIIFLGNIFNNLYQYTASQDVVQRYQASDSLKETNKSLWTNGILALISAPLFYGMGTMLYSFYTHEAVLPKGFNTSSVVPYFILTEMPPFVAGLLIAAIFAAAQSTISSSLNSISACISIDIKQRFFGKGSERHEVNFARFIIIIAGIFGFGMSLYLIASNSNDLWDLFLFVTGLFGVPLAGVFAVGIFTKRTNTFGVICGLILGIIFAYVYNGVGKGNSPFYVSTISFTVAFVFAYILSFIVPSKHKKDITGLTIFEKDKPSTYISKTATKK
Test: nanoDSF thermal shift assay, SaSiaT
Format: binding
Details: SaSiaT Tm, average of experiment 2
parameter: Average 2 (°C)
Give just the number in °C; leave the unit off.

Report Average 2 from SaSiaT (Staphylococcus aureus, UniProt A0A0H2XJ46) testing of CCC(=O)NC1C(O)CC(O)(C(=O)O)OC1C(O)C(O)CO (stereo not drawn)
41.9

// fetch Average 2; item: CC(=O)N[C@H]1[C@H]([C@H](O)[C@H](O)CO)OC(O)(C(=O)O)C[C@@H]1O (stereo partly drawn) [Neu5Ac, 5-N-acetyl neuraminic acid, reference compound] ; system: SaSiaT (Staphylococcus aureus, UniProt A0A0H2XJ46)
51.1

For SaSiaT (Staphylococcus aureus, UniProt A0A0H2XJ46), give Average 2 of the listed compound: CC(=O)N[C@H]1[C@H]([C@H](O)[C@H](O)CO)OC(C(=O)O)=C[C@@H]1O [Compound 9, reference compound]
45.8

These entries and their values trace back to paper PMC9295122.
